Recorded abundance fitness values for a group of variants are listed next.
B1: Unconventional myosin-Ie, residues 1051 to 1108; numbered along this chain, Q12965 (parent)
chain: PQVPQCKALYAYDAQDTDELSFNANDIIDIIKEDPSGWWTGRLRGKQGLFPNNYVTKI

# Variants of: B1
# assayNotes: abundance fitness (aPCA) (normalised: wild type 0, dead -1); higher = more abundant; growth selection in yeast, the domain comes from the species named
# experimentalParameters: Homo sapiens
experimentalReadout: abundance fitness

[[record]]
variantcode = "I27V"
experimentalreadout = "abundance fitness"
val = -0.085

[[record]]
variantcode = "Q47M"
experimentalreadout = "abundance fitness"
val = -0.169

[[record]]
variantcode = "D13A"
experimentalreadout = "abundance fitness"
val = -0.156

[[record]]
variantcode = "I27D"
experimentalreadout = "abundance fitness"
val = -0.618

[[record]]
variantcode = "G45D"
experimentalreadout = "abundance fitness"
val = -0.075

[[record]]
variantcode = "D18I"
experimentalreadout = "abundance fitness"
val = -0.197

[[record]]
variantcode = "Y10W"
experimentalreadout = "abundance fitness"
val = -0.092

